# tested.target: T1, cyno FcRn/b2M (cyno, UniProt Q8SPV9 24-297; Q8SPW0 21-119, biotinylated)
# T1 construct: bought recombinant biotinylated protein (Immunitrack ITF05 or ACRO FCM-C82W5); also called cFcRn; cFcRn/cb2M
# T1 sequence (Q8SPV9 24-297 limits assumed, chain 1 of 2): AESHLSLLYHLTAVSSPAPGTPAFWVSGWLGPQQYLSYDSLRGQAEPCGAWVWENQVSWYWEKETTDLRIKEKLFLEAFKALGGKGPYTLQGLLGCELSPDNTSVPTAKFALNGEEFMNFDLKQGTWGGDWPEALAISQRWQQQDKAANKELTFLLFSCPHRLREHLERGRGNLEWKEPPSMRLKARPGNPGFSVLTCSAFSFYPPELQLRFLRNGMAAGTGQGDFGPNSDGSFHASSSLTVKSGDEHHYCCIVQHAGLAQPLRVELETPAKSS
# T1 sequence (Q8SPW0 21-119 limits assumed, chain 2 of 2): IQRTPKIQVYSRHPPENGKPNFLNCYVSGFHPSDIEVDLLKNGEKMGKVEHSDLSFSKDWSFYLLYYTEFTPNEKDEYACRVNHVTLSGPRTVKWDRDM
# assay.info: SPR pH 6.0
experimental.readout: Kd (nM)

a. T026301070 (VHH, name in Kabat numbering, tagless) VHH: EVQLVESGGGVVQPGGSLRLSCAASGFTFSEYDMYWVRQAPGKGLEWVSAISQGGGSTDYADSVKGRFTISRDNSKNTLYLQMNSLRPEDTALYYCAADTLYTSLTSYSYWGQGTLVTVSS
b. T026301100 (VHH, name in Kabat numbering, tagless) VHH: EVQLVESGGGVVQPGGSLRLSCAASGFTFSSYDMYWVRQAPGKGLEWVSAISQGGGSTDYADSVKGRFTISRDNSKNTLYLQMNSLRPEDTALYYCAADTLYTDLTWYSYWGQGTLVTVSS
c. T026301057 (VHH, name in Kabat numbering, tagless) VHH: EVQLVESGGGVVQPGGSLRLSCAASGFTFSEYAMYWVRQAPGKGLEWVSAISQGGGSTDYADSVKGRFTISRDNSKNTLYLQMNSLRPEDTALYYCAADTLYTSLTSYSYWGQGTLVTVSS
d. T026301076 (VHH, name in Kabat numbering, tagless) VHH: EVQLVESGGGVVQPGGSLRLSCAASGFTFSSYDMYWVRQAPGKGLEWVSAISQGGGSTDYADSVKGRFTISRDNSKNTLYLQMNSLRPEDTALYYCAADTLYTSLTKYSYWGQGTLVTVSS
Which order do these items take when sorted by rising Kd? List them. Quick reminder: the answer is the labels in the order asked.
d, b, a, c
